- Target Desc: T1, human serum albumin (human, UniProt P02768 25-609)
- T1 construct: also called HSA
- Assay Details: SPR, single cycle kinetics, pH 5.5
Measured Parameter: Kd

>  <Binder>
M79 sdAb (VHH, also called M79 VHH) VHH: QVKLEESGGGLVQAGGSLKLSCAASGSTFSSSSVGWYRQAPGQQRELVAAITSGGSTNTADSVKGRFTMSRDNAKNTVYLQMRDLKPEDTAVYYCNVAGRNWVPISRYSPGPYWGQGTQVTVSS

>  <Recorded Result>
7.1 nM

$$$$
>  <Binder>
R28-H1 (VHH) VHH: EVQLVESGGGLVQPGGSLRLSCAASGRTFIAYAMGWFRQAPGKGLEFVSAITNFAGGTTYYADSVKGRFTISRDNSKNTLYLQMNSLRAEDTAVYYCAADRSAQTMRQVRPVLPYWGQGTLVTVSS

>  <Recorded Result>
15.2 nM

$$$$

Values compiled from patent US20210253679A1.
